Test system: KASUMI-1 cells
Test: MTT cell killing assay
Format: cell-based, Human
Settings: KASUMI-1; daunorubicin-loaded aptamer immobilized on 3x3v1 net; read-out: IC50 (pM) 3x3v1
So I've got a bunch of molecules here, and I need their IC50 values.
Please reply with the bare figure in pM and do not write the unit itself.

## Input So what does the record say about IC50 for ZW25: CD123-binding aptamer, SEQ ID NO: 4 (nucleic acid, listed as DNA, chemistry not fully specified) TGCGTGTGTAGTGTGTCTGGGCTACATCGATGAGCTGCCTAGGGTCCCTCTTAGGGATTTGGGCGGG ?
## Output 445

## Input So what does the record say about IC50 for CY30: CD123-binding aptamer, SEQ ID NO: 5 (nucleic acid, listed as DNA, chemistry not fully specified) TGCGTGTGTACTGTGTCTGGTCCCGTAGCTACTAGCGAACTCCCTGCCTCTTAGGGATTTGGGCGG ?
## Output 931

## Input So what does the record say about IC50 for ABWT050902: CD117-binding aptamer, SEQ ID NO: 1; FAM-labeled or daunorubicin-loaded in tests (nucleic acid, FAM label or daunorubicin loading in tests, chemistry not fully specified) ATCCAGAGTGACGCAGCACCGCCCATGTCGAATAGGTGCCACGTAGGGACTTGGACACGGTGGCTTAGT ?
## Output 218

## Input So what does the record say about IC50 for ABWT050904: CD117-binding aptamer, SEQ ID NO: 2 (nucleic acid, listed as DNA, chemistry not fully specified) ATCCAGAGTGACGCAGCACGAGCCTTGTGTCGTTCGGAGTGCTGGTCCACGACTACTATTGGACACGGTGGCTTAGT ?
## Output 233

## Input So what does the record say about IC50 for #1: CD117-binding aptamer, SEQ ID NO: 3 (nucleic acid, listed as DNA, chemistry not fully specified) GAGGCATACCAGCTTATTCAAGGGGCCGGGGCAAGGGGGGGGTACCGTGGTAGGACATAGTAAGTGCAATCTGCGAA ?
## Output 147

The measurements presented in this section are drawn from patent US20250388907A1.
